- Tested on: Phospholipase A2 group VI, Homo sapiens
- assay protocol: Inhibition of human calcium-independent group-6A iPLA2 using Triton-X-100/PAPC/arachidonyl-1-14C PAPC substrate mixed micelles at 0.091 mole_fraction by modified dole assay relative to control
outcome measure: inhibition (%)
Number only, in %; omit the unit.

CCCC[C@H](NC(=O)C(=O)CCCCc1ccc(OC)cc1)C(=O)NCCCCC(=O)OC(C)(C)C = 90.1

Param item = CCCC[C@H](NC(=O)C(=O)CCCCc1ccc(OC)cc1)C(=O)NCCCC(=O)OCc1ccccc1 ; retrieve measured inhibition. 78.3

Param item = COc1ccc(CCCCC(=O)C(=O)N[C@H](C(=O)NCC(=O)OC(C)(C)C)C(C)C)cc1 ; retrieve measured inhibition. 85.7

Param item = CC[C@H](C)[C@H](NC(=O)C(=O)CCCCc1ccc(OC)cc1)C(=O)NCC(=O)OC(C)(C)C ; retrieve measured inhibition. 81.8

Param item = CCCC[C@H](NC(=O)C(=O)CCCCc1ccc(OC)cc1)C(N)=O ; retrieve measured inhibition. 66.2

Param item = CCCC[C@H](NC(=O)C(=O)CCCCc1ccc(OC)cc1)C(=O)N[C@@H](C)C(=O)OC(C)(C)C ; retrieve measured inhibition. 87.5
